Listed sequences paired with reported phosphorylation enrichment
- System: Fer (mouse)
- procedure_summary: phosphorylation enrichment, bacterial display (enrichment ratio); higher = better substrate or ligand; peptides without Tyr show the background

Some sequences with known phosphorylation enrichment results, for comparison:
record_sequence | phosphorylation enrichment
ARGTRYRYVSQ [UCN3_Y95] | 0.493
IGEGTYGVVYK [CDK2_Y15] | 1.73
ADKSVYLMGLN [MYH7_Y386_A385V] | 0.413

Measured phosphorylation enrichment of GTVRDYPDFSP [ANXA3_Y15] : 0.395

What the record says about KNNDGNIDFAE [MCFD2_Y135_Y135N_YF] : phosphorylation enrichment is 0.525

Lookup result for LFSLGYHQSLW [GANAB_Y396_R400L] ; measured phosphorylation enrichment: 0.474

###

- Test system: AncSZ
- procedure_summary: phosphorylation enrichment, bacterial display (enrichment ratio); higher = better substrate or ligand; peptides without Tyr show the background
We begin with a simple list: items and their reported phosphorylation enrichment.
Lab note: record the figure alone, no unit after it.

Below: 4 sequences and their reported phosphorylation enrichment.
record_sequence | tested_target | recorded_metric | endpoint_result
HKANEYFPVVI [ADAMTS18_Y764_L769I_YF] | AncSZ | phosphorylation enrichment | 1.35
QLPRGYISIPV [BAG3_Y205] | AncSZ | phosphorylation enrichment | 0.789
GEDPIYVTLEG [RTKtide_2018] | AncSZ | phosphorylation enrichment | 1.81
LSVEIYDRREF [ITGB7_Y753_YF] | AncSZ | phosphorylation enrichment | 1.26

Field phosphorylation enrichment (entry NFRTIYVNANE [KCNH2_Y475_T474I] ) reads 0.659

The reported value for LMVFEYMRHGD [NTRK1_Y591] in terms of phosphorylation enrichment is 0.845

###

Collected SH2 binding enrichment values appear next to each entry.
- tested_target: c-Src SH2;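 further: peptide library displayed on the E. coli surface as eCPX fusions, selected cells deep-sequenced, score is each peptide's frequency after selection divided by its frequency in the input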
- procedure_summary: SH2 binding enrichment of the phosphorylated peptide, bacterial display (enrichment ratio); higher = better substrate or ligand; peptides without Tyr show the background
// no unit string in output, number only

record_sequence | endpoint_result
RRVLVYRGRGA [QDPR_Y16_G17R] | 0.425
VREIRYQGGNR [VWF_Y1570] | 0.391
QNTVDYYDLYG [PTPN11_Y62_G60V] | 0.816

Measured SH2 binding enrichment of QSSALYEDCYL [ASS1_Y83_R86C] : 0.86

Looking up DDDPEDRKFLE [UPF3B_Y160_Y160D] , I found its SH2 binding enrichment recorded as 0.579

###

- tested_target: Hck (UniProt P08631)
- Sequence (P08631 whole entry, looked up): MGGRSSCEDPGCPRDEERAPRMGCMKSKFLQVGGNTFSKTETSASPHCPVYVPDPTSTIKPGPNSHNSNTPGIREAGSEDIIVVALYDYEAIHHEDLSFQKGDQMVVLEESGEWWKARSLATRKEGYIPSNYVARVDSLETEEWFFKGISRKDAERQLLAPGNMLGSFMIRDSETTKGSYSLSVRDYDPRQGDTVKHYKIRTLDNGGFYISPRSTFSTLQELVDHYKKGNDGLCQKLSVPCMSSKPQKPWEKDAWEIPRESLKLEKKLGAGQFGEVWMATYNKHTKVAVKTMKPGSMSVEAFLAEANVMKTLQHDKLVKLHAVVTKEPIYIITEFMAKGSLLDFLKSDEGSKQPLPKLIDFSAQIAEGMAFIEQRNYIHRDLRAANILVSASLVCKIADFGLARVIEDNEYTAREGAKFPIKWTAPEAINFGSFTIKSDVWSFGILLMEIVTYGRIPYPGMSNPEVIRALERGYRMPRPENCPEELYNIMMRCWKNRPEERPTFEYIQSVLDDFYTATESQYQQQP
- procedure_summary: phosphorylation enrichment, bacterial display (enrichment ratio); higher = better substrate or ligand; peptides without Tyr show the background
recorded_metric: phosphorylation enrichment
Please state the value as a number alone, without comment.

// solved cases for phosphorylation enrichment follow
record_sequence | endpoint_result
FADPFYDFEIE [ZC3H18_Y372_YF] | 0.674
QEGPEYWDGNT [HLA-B_Y83_R86G] | 0.833
AIDDKYSRREE [SART1_Y685] | 0.465
SISLRYEGRVF [ABL1_Y167_YF] | 0.507
LFEDRYLLGPS [ASS1_Y87_T91P_YF] | 0.804
TGQERYRAITS [RAB11B_Y73_A68T] | 0.519

For reference, reported phosphorylation enrichment for EQLRAYLEGTC [HLA-C_Y183] stands at 0.55

Reported phosphorylation enrichment of TTPAVYARVTK [CTRB2_Y246_A250T] : 2.42

The recorded phosphorylation enrichment for entry SLMNQYVNKEF [RAB7A_Y28_K32E] equals 0.469
